Source: ChEMBL document CHEMBL1255401

Please go through the items and note down their kcat/Km.
# method: Ratio of Kcat to Km for Beta-lactamase OXA-1 expressed in Escherichia coli BL21 (DE3)

{"mol": "CC1(C)S[C@@H]2[C@H](NC(=O)[C@H](N)c3ccccc3)C(=O)N2[C@H]1C(=O)O", "kcat/Km": "6e+06 M⁻¹ s⁻¹"}
{"mol": "O=C(Cc1cccs1)N[C@@H]1C(=O)N2C(C(=O)[O-])=C(C[n+]3ccccc3)CS[C@H]12", "kcat/Km": "210000 M⁻¹ s⁻¹"}
{"mol": "Cc1onc(-c2ccccc2)c1C(=O)N[C@@H]1C(=O)N2[C@@H]1SC(C)(C)[C@@H]2C(=O)O", "kcat/Km": "1.9e+07 M⁻¹ s⁻¹"}

We now examine a further molecule.
Problem: Given the molecule "O=C(Cc1cccs1)N[C@@H]1C(=O)N2C(C(=O)O)=C(/C=C/c3ccc([N+](=O)[O-])cc3[N+](=O)[O-])CS[C@H]12" , what is its reported kcat/Km?
Result: 1e+07 M⁻¹ s⁻¹

====

# method: Activity of Beta-lactamase OXA-1 expressed in Escherichia coli BL21 (DE3)
recorded_metric: Km (µM)
Answers are plain numbers, in µM.

Reference set, count: 3
{"mol": "Cc1onc(-c2ccccc2)c1C(=O)N[C@@H]1C(=O)N2[C@@H]1SC(C)(C)[C@@H]2C(=O)O", "unit_label": "µM", "Km": 31}
{"mol": "CC1(C)S[C@@H]2[C@H](NC(=O)[C@H](N)c3ccccc3)C(=O)N2[C@H]1C(=O)O", "unit_label": "µM", "Km": 64}
{"mol": "O=C(Cc1cccs1)N[C@@H]1C(=O)N2C(C(=O)O)=C(/C=C/c3ccc([N+](=O)[O-])cc3[N+](=O)[O-])CS[C@H]12", "unit_label": "µM", "Km": 9}

We now examine a further molecule.
Problem: Given the molecule "O=C(Cc1cccs1)N[C@@H]1C(=O)N2C(C(=O)[O-])=C(C[n+]3ccccc3)CS[C@H]12" , what is its reported Km?
Result: 80
